# studySystem: CUL2^ZYG11B (residues 490–728) (Homo sapiens, UniProt Q9C0D3)
# Construct: PCR was used to amplify CUL2^ZYG11B (residues 490–728); 6×His-SUMO (TEV-cleavable) (N, cleaved yes); made in house; host or cells: E. coli
# Sequence (Q9C0D3 490-728): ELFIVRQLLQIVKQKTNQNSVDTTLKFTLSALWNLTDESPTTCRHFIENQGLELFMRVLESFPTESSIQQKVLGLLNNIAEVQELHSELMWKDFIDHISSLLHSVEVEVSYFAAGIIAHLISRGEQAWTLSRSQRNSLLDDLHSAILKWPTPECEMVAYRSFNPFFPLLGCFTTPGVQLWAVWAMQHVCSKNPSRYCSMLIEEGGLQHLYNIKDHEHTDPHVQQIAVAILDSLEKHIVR
# testSummary: ITC binding of ORF10 NTE synthetic peptides to CUL2^ZYG11B
# experimentalContext: figure panels; […]; repeated 3 times; read-out: Kd
Residues, ends and D or L forms follow the SMILES beside them.
measuredQuantity: pKd
Worth noting: pKd values are minus log10 of concentrations stated in mol/L.

IN: Report pKd for CC[C@H](C)[C@H](NC(=O)[C@H](Cc1ccc(O)cc1)NC(=O)CN)C(=O)O [SARS-2 ORF10 N3] (H-Gly-Tyr-Ile-OH) please.
OUT: 4.84

IN: Report pKd for CC[C@H](C)[C@H](NC(=O)[C@H](Cc1ccc(O)cc1)NC(=O)CN)C(=O)N[C@@H](CC(N)=O)C(=O)O [SARS-2 ORF10 N4] (H-GYIN-OH) please.
OUT: 5.29
